biological target: GSK3β (Homo sapiens, UniProt P49841+Q96SW2); construct: genetically engineered using CRISPR/Cas9 technology to endogenously tag GSK3p protein with HiBiT tag at the C-terminus; host or cells: HEK293 cells, CRISPR/Cas9 knock-in of HiBiT at the endogenous GSK3B locus; assay: High throughput screening for GSK3β-HiBiT targeted degradation (Nano-Glo HiBiT Lytic luminescence); format: cell-based; conditions: HEK293 cells with endogenously HiBiT-tagged GSK3β, 24 h incubation, 0.01-30 μM; products of one-pot plate array (FIG. 1, Method A); read-out: DC50 (half-maximal degradation concentration)
Sequence (P49841 whole entry): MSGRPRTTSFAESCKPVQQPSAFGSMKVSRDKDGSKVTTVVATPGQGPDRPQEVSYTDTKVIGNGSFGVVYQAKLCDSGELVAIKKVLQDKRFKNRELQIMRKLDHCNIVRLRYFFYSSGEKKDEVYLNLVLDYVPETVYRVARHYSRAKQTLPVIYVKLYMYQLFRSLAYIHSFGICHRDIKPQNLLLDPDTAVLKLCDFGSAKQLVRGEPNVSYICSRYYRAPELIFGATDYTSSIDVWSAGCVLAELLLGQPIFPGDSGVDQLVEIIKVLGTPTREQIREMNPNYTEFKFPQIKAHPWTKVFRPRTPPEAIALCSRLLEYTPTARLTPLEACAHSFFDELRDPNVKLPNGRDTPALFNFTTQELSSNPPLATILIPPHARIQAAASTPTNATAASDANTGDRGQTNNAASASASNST
Sequence (Q96SW2 whole entry): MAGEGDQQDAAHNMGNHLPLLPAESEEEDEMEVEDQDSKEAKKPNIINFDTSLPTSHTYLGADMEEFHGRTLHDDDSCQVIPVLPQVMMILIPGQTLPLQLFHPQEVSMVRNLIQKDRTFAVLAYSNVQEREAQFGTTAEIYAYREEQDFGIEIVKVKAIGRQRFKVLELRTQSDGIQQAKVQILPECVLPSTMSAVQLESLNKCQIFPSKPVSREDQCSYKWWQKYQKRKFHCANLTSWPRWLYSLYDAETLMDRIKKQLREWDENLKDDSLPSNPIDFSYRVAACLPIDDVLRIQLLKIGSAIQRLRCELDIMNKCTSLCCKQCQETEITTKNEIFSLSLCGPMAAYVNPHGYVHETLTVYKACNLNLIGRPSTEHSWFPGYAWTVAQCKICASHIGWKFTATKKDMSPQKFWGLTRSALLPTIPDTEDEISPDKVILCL
Sequence (Q16531 whole entry partner): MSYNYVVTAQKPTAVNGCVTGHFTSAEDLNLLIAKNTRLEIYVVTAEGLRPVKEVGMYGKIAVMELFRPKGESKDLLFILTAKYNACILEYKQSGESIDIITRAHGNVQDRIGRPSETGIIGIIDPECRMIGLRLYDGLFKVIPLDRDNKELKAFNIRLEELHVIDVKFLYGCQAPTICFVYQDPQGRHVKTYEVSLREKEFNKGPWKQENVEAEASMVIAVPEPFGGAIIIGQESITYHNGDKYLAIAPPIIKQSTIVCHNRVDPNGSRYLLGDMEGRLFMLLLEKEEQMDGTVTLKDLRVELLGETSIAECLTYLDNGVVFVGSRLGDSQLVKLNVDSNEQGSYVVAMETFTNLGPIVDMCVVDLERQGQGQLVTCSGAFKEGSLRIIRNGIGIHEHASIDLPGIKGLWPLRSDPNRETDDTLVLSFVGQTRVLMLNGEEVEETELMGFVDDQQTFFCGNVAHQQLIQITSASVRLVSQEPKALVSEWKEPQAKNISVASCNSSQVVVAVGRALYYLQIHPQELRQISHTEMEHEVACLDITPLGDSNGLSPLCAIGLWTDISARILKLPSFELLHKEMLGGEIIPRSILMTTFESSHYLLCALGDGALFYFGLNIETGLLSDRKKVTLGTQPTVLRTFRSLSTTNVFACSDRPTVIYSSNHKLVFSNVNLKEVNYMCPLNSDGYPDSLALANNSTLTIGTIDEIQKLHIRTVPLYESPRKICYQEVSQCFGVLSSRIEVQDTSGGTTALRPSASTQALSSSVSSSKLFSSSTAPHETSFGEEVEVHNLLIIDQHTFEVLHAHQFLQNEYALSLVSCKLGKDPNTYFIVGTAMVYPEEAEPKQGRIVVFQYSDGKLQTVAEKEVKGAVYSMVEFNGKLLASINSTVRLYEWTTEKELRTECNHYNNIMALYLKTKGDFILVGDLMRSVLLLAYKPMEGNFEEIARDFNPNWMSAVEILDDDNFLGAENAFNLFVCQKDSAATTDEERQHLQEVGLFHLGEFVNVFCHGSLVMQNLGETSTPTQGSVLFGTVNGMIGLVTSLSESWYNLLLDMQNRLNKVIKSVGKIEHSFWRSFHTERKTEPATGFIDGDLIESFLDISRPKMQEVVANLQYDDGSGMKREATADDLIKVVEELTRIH
Measured DC50 by item

COc1ccc(-c2ocnc2C(=O)NCCCn2cc(COc3ccc(CN4CCN(Cc5ccc(N6CCC(=O)NC6=O)cc5)CC4)cc3)nn2)cc1Cl | > 10 µM
COc1ccc(-c2ocnc2C(=O)NCCCn2cc(-c3ccc(CN4CCN(Cc5ccc(N6CCC(=O)NC6=O)cc5)CC4)cn3)nn2)cc1Cl | > 10 µM
COc1ccc(-c2ocnc2C(=O)NCCCn2cc(CCCOc3ccc(CN4CCN(Cc5ccc6c(N7CCC(=O)NC7=O)nn(C)c6c5)CC4)cc3)nn2)cc1Cl | < 0.25 µM
COc1ccc(-c2ocnc2C(=O)NCCCn2cc(COCCOCCN3CCN(CC(=O)N[C@H](C(=O)N4C[C@H](O)C[C@H]4C(=O)NCc4ccc(-c5scnc5C)cc4)C(C)(C)C)CC3)nn2)cc1Cl | > 10 µM
COc1ccc(-c2ocnc2C(=O)NCCCn2cc(CCCN3CCN(Cc4ccc(C(=O)NC5CCC(=O)NC5=O)c(F)c4)CC3)nn2)cc1Cl (stereo not drawn) | > 10 µM

Next item in the queue.
DC50 in this record for COc1ccc(-c2ocnc2C(=O)NCCCn2cc(COC3CCN(Cc4ccc(N5CCC(=O)NC5=O)cc4)CC3)nn2)cc1Cl : > 10 µM
